test system: OVCAR-3; assay: Anticancer activity against human OVCAR-3 cells after 48 hrs by sulforhodamine B assay; format: functional; conditions: OVCAR-3, 48 h
Parameter measured: GI50 (µM)
Numbers only, in µM.

[
  {
    "Structure smiles string": "CCC(NC(=O)Nc1nc2ccccc2s1)(C(F)(F)F)C(F)(F)F",
    "Unit spec": "µM",
    "GI50": 16.6
  },
  {
    "Structure smiles string": "O=C(Nc1nccs1)NC(C(F)(F)F)C(F)(F)F",
    "Unit spec": "µM",
    "GI50": 42.7
  },
  {
    "Structure smiles string": "O=C(Nc1nc2ccccc2s1)NC(C(F)(F)F)C(F)(F)F",
    "Unit spec": "µM",
    "GI50": 18.2
  },
  {
    "Structure smiles string": "O=c1[nH]cc(F)c(=O)[nH]1",
    "Unit spec": "µM",
    "GI50": 0.0158
  },
  {
    "Structure smiles string": "CCC(NC(=O)Nc1nccs1)(C(F)(F)F)C(F)(F)F",
    "Unit spec": "µM",
    "GI50": 61.7
  }
]

Ask: Answer with reported GI50 of CNC(=O)Nc1ccccc1
Result: 100

###

Please provide measured growth at 100 µM for the entries that follow.
test system: SF-268; experiment: Anticancer activity against human SF268 cells assessed as cell growth at 100 uM after 48 hrs by Alamar blue assay relative to control; format: functional; settings: SF-268, 48 h, read-out: Activity
Answers are plain numbers, in %.

Reference set, count: 5
[
  {
    "Structure smiles string": "O=C(Nc1nccs1)NC(C(F)(F)F)C(F)(F)F",
    "Parameter measured": "growth at 100 µM",
    "Quantitative readout": 20
  },
  {
    "Structure smiles string": "CC(NC(=O)Nc1nc2ccccc2s1)(C(F)(F)F)C(F)(F)F",
    "Parameter measured": "growth at 100 µM",
    "Quantitative readout": 28
  },
  {
    "Structure smiles string": "CCC(NC(=O)Nc1nccs1)(C(F)(F)F)C(F)(F)F",
    "Parameter measured": "growth at 100 µM",
    "Quantitative readout": 40
  },
  {
    "Structure smiles string": "CCC(NC(=O)Nc1nc2ccccc2s1)(C(F)(F)F)C(F)(F)F",
    "Parameter measured": "growth at 100 µM",
    "Quantitative readout": -94
  },
  {
    "Structure smiles string": "CC(NC(=O)Nc1nccs1)(C(F)(F)F)C(F)(F)F",
    "Parameter measured": "growth at 100 µM",
    "Quantitative readout": 74
  }
]

Attention now turns to another entry.
Ask: Answer with reported growth at 100 µM of O=C(Nc1nc2ccccc2s1)NC(C(F)(F)F)C(F)(F)F
Result: -39

###

system: SW-620; experiment: Anticancer activity against human SW620 cells after 48 hrs by sulforhodamine B assay; type: functional; conditions: SW-620, 48 h
Please provide measured log10 of GI50 for the entries that follow.
A value of 2 here means GI50 of 100 in µM, since values are log10.

Reference set, count: 3
[
  {
    "Structure smiles string": "O=c1[nH]cc(F)c(=O)[nH]1",
    "Quantitative readout": -0.03
  },
  {
    "Structure smiles string": "CCC(NC(=O)Nc1nc2ccccc2s1)(C(F)(F)F)C(F)(F)F",
    "Quantitative readout": 1.32
  },
  {
    "Structure smiles string": "CC(NC(=O)Nc1nc2ccccc2s1)(C(F)(F)F)C(F)(F)F",
    "Quantitative readout": 1.66
  }
]

Give me log10 of GI50 for each of these compounds, listed below.
1. CCC(NC(=O)Nc1nccs1)(C(F)(F)F)C(F)(F)F
2. CNC(=O)Nc1ccccc1

Result:
1.92
2.00

Ask: Answer with reported log10 of GI50 of O=C(Nc1nc2ccccc2s1)NC(C(F)(F)F)C(F)(F)F
Result: 1.53

Data origin, for the record: ChEMBL document CHEMBL1155222
